- test_method_notes: Stability of the compound in simulated gastric fluid assessed as compound remaining at pH 1.5 after 60 mins by LC-MS/MS analysis
- Assay type: physicochemical
- particulars: read-out: Stability

compound | unit_text | remaining at 1 h
Cc1c(CC(=O)NC(CO[N+](=O)[O-])C(=O)O)cc(-c2ccc(S(C)(=O)=O)cc2)n1-c1cccc(F)c1 (racemic) | % | 93.8
Cc1c(CC(=O)OCCO[N+](=O)[O-])cc(-c2ccc(S(C)(=O)=O)cc2)n1-c1cccc(F)c1 | % | 65.7
Cc1c(CC(=O)NCCO[N+](=O)[O-])cc(-c2ccc(S(C)(=O)=O)cc2)n1-c1ccc(F)cc1 | % | 100
Cc1c(C(N)C(=O)OCCO[N+](=O)[O-])cc(-c2ccc(S(C)(=O)=O)cc2)n1-c1ccc(F)cc1 (centres undefined) | % | 100

###

Reported remaining at 0.5 h is given for each of the following compounds.
- test_method_notes: Stability of the compound in phosphate buffer saline assessed as compound remaining at pH 7.4 after 30 mins by LC-MS/MS analysis
- Type: physicochemical
- particulars: read-out: Stability

compound | remaining at 0.5 h (%)
Cc1c(CC(=O)NC(CO[N+](=O)[O-])C(=O)O)cc(-c2ccc(S(C)(=O)=O)cc2)n1-c1cccc(F)c1 (racemic) | 75
Cc1c(CC(=O)NCCO[N+](=O)[O-])cc(-c2ccc(S(C)(=O)=O)cc2)n1-c1ccc(F)cc1 | 100
Cc1c(C(N)C(=O)OCCO[N+](=O)[O-])cc(-c2ccc(S(C)(=O)=O)cc2)n1-c1ccc(F)cc1 (centres undefined) | 75
Cc1c(CC(=O)OCCO[N+](=O)[O-])cc(-c2ccc(S(C)(=O)=O)cc2)n1-c1cccc(F)c1 | 74.1

###

- assay_target: Prostaglandin G/H synthase 1 (Mus musculus) (UniProt P22437)
- Sequence (whole entry): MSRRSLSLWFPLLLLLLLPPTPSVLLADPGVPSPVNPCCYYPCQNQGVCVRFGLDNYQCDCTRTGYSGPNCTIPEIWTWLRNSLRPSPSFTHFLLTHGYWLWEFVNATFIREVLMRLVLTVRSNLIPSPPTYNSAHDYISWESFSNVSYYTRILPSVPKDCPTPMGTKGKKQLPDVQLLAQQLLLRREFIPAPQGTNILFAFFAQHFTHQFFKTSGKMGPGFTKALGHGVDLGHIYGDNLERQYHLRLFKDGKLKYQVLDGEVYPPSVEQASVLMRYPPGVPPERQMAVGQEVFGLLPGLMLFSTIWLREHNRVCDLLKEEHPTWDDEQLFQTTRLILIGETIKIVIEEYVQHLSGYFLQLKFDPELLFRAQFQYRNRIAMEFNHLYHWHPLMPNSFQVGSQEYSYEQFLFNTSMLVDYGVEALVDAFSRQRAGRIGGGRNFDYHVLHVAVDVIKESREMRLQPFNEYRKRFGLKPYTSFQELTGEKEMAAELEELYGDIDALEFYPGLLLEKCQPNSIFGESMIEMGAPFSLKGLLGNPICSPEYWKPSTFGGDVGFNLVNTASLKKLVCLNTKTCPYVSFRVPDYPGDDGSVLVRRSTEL
- test_method_notes: Inhibition of COX-1 in mouse J774 cells using arachidonic acid as substrate assessed as inhibition of prostaglandin E2 production at 10 uM preincubated for 15 mins followed by substrate addition measured after 30 mins by RIA
- Type: cell-based
Recorded inhibition by entry

compound | inhibition, %
Cc1c(CC(=O)NC(CCO)C(=O)O)cc(-c2ccc(S(C)(=O)=O)cc2)n1-c1ccc(F)cc1 (racemic) | 19
Cc1c(CC(=O)NC(CO[N+](=O)[O-])C(=O)O)cc(-c2ccc(S(C)(=O)=O)cc2)n1-c1cccc(F)c1 (racemic) | 0
Cc1c(CC(=O)NCCCO)cc(-c2ccc(S(C)(=O)=O)cc2)n1-c1ccc(F)cc1 | 21
Cc1c(CC(=O)NC(CCO[N+](=O)[O-])C(=O)O)cc(-c2ccc(S(C)(=O)=O)cc2)n1-c1cccc(F)c1 (racemic) | 27
Cc1c(CC(=O)NC(CCO[N+](=O)[O-])C(=O)O)cc(-c2ccc(S(C)(=O)=O)cc2)n1-c1ccc(F)cc1 (racemic) | 6
Cc1c(CC(=O)NC(CO)C(=O)O)cc(-c2ccc(S(C)(=O)=O)cc2)n1-c1cccc(F)c1 (racemic) | 23
Cc1c(CC(=O)NCCCO[N+](=O)[O-])cc(-c2ccc(S(C)(=O)=O)cc2)n1-c1ccc(F)cc1 | 0
Cc1c(CC(=O)NCCO)cc(-c2ccc(S(C)(=O)=O)cc2)n1-c1ccc(F)cc1 | 0

###

- test_method_notes: Stability of the compound in phosphate buffer saline assessed as compound remaining at pH 7.4 after 60 mins by LC-MS/MS analysis
- Assay type: physicochemical
- particulars: read-out: Stability
Each entry below lists one item and its recorded remaining at 1 h value.

compound | remaining at 1 h [%]
Cc1c(CC(=O)OCCO[N+](=O)[O-])cc(-c2ccc(S(C)(=O)=O)cc2)n1-c1cccc(F)c1 | 53.6
Cc1c(CC(=O)NCCO[N+](=O)[O-])cc(-c2ccc(S(C)(=O)=O)cc2)n1-c1ccc(F)cc1 | 100
Cc1c(CC(=O)NC(CO[N+](=O)[O-])C(=O)O)cc(-c2ccc(S(C)(=O)=O)cc2)n1-c1cccc(F)c1 (racemic) | 50
Cc1c(C(N)C(=O)OCCO[N+](=O)[O-])cc(-c2ccc(S(C)(=O)=O)cc2)n1-c1ccc(F)cc1 (centres undefined) | 75

###

- test_method_notes: Stability of the compound in simulated gastric fluid assessed as compound remaining at pH 1.5 after 120 mins by LC-MS/MS analysis
- Type: physicochemical
- particulars: read-out: Stability

compound | remaining at 2 h, %
Cc1c(CC(=O)OCCO[N+](=O)[O-])cc(-c2ccc(S(C)(=O)=O)cc2)n1-c1cccc(F)c1 | 42.8
Cc1c(C(N)C(=O)OCCO[N+](=O)[O-])cc(-c2ccc(S(C)(=O)=O)cc2)n1-c1ccc(F)cc1 (centres undefined) | 100
Cc1c(CC(=O)NCCO[N+](=O)[O-])cc(-c2ccc(S(C)(=O)=O)cc2)n1-c1ccc(F)cc1 | 100
Cc1c(CC(=O)NC(CO[N+](=O)[O-])C(=O)O)cc(-c2ccc(S(C)(=O)=O)cc2)n1-c1cccc(F)c1 (racemic) | 87.5

###

- assay_target: Prostaglandin G/H synthase 1 (Mus musculus)
- test_method_notes: Inhibition of COX-1 in mouse J774 cells using arachidonic acid as substrate assessed as inhibition of prostaglandin E2 production at 10 uM preincubated for 15 mins followed by substrate addition measured after 30 mins by RIA
- Format: cell-based

compound | unit_text | inhibition
Cc1c(CC(=O)NCCO[N+](=O)[O-])cc(-c2ccc(S(C)(=O)=O)cc2)n1-c1cccc(F)c1 | % | 0
Cc1c(CC(=O)NC(CO[N+](=O)[O-])C(=O)O)cc(-c2ccc(S(C)(=O)=O)cc2)n1-c1ccc(F)cc1 (centres undefined) | % | 0
Cc1c(CC(=O)NCCO[N+](=O)[O-])cc(-c2ccc(S(C)(=O)=O)cc2)n1-c1ccc(F)cc1 | % | 9
Cc1c(CC(=O)NC(CCO)C(=O)O)cc(-c2ccc(S(C)(=O)=O)cc2)n1-c1cccc(F)c1 (racemic) | % | 16

###

- test_method_notes: Oral bioavailability in Wistar rat at 10 mg/kg by LC-MS/MS analysis
- Format: ADME, organism-based
- particulars: in vivo

smi | bioavailability / %
Cc1c(CC(=O)NCCO[N+](=O)[O-])cc(-c2ccc(S(C)(=O)=O)cc2)n1-c1ccc(F)cc1 | 24

###

- assay_target: Prostaglandin G/H synthase 2 (Mus musculus)
- Sequence (Q05769 whole entry): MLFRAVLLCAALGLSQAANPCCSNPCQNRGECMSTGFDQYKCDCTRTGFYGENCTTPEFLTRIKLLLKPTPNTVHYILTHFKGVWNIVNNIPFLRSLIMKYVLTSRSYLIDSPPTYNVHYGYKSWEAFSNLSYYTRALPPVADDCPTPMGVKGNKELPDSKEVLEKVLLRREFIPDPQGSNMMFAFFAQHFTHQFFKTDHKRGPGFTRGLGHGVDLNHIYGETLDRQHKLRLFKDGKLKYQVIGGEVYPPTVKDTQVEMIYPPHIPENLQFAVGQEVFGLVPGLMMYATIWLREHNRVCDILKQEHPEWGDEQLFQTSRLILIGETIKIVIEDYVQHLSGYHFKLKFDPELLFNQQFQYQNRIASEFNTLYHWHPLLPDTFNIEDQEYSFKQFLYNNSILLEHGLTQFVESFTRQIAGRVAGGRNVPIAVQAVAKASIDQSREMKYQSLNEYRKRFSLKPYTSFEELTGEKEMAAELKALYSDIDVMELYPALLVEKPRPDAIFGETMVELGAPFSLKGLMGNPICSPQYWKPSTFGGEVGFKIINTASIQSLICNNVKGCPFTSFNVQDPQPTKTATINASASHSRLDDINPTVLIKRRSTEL
- test_method_notes: Inhibition of LPS-induced COX-2 in mouse J774 cells using arachidonic acid as substrate assessed as inhibition of prostaglandin E2 production preincubated for 15 mins followed by substrate addition measured after 30 mins by RIA

molecule | IC50
Cc1c(CC(=O)NC(CO)C(=O)O)cc(-c2ccc(S(C)(=O)=O)cc2)n1-c1ccc(F)cc1 (racemic) | 160 nM
Cc1c(CC(=O)NC(CO[N+](=O)[O-])C(=O)O)cc(-c2ccc(S(C)(=O)=O)cc2)n1-c1ccc(F)cc1 (centres undefined) | 310 nM
Cc1c(CC(=O)NC(CO)C(=O)O)cc(-c2ccc(S(C)(=O)=O)cc2)n1-c1cccc(F)c1 (racemic) | 68 nM
Cc1c(CC(=O)NCCCO)cc(-c2ccc(S(C)(=O)=O)cc2)n1-c1cccc(F)c1 | 45 nM
Cc1c(CC(=O)NC(CO[N+](=O)[O-])C(=O)O)cc(-c2ccc(S(C)(=O)=O)cc2)n1-c1cccc(F)c1 (racemic) | 140 nM
Cc1c(CC(=O)NCCO[N+](=O)[O-])cc(-c2ccc(S(C)(=O)=O)cc2)n1-c1cccc(F)c1 | 300 nM
Cc1c(CC(=O)NCCCO[N+](=O)[O-])cc(-c2ccc(S(C)(=O)=O)cc2)n1-c1ccc(F)cc1 | 310 nM
Cc1c(CC(=O)NCCCO[N+](=O)[O-])cc(-c2ccc(S(C)(=O)=O)cc2)n1-c1cccc(F)c1 | 250 nM
Cc1c(CC(=O)NCCO[N+](=O)[O-])cc(-c2ccc(S(C)(=O)=O)cc2)n1-c1ccc(F)cc1 | 249 nM
